Values from a melting point compilation (Tetko et al.; mined from patent text by program, amines drawn as free bases though some values may be those of a salt)

readout-name: melting point

compound: O=C1N(Cc2cc3ccccc3o2)c2ccccc2C12COc1cc3c(cc12)OCO3 (stereo unspecified)
readout-name: melting point
reported-value: 167 to 168 °C
//
compound: CCC(C)(C)NC(=O)c1cnc2cccc(C)n2c1=O
readout-name: melting point
reported-value: 87 to 89 °C
//
compound: CN(C(N)=O)C1CCCc2ccccc21 (stereo unspecified)
readout-name: melting point
reported-value: 160 to 163 °C
//
compound: COC(=O)Nc1ccc(Br)cn1
readout-name: melting point
reported-value: 191 to 192 °C
//
compound: O=C1N=CNC(=O)C1Cc1ccccc1C(F)(F)F (stereo unspecified)
readout-name: melting point
reported-value: > 290 °C

Continue with the next compound.
Task item: Dear colleague, I am looking for the recorded melting point of the following compound: CC(C)(C)OC(=O)CNC(=O)c1nc2cc(Cl)ccc2o1
Reply: 152 to 154 °C

====

readout-name: melting point

compound: CC(=CC(N)[C@@H]1CN(c2ccc(-c3cccnc3)cn2)C(=O)O1)[N+](=O)[O-] (some centres undefined)
melting point: 207 °C

Task item: Dear colleague, I am looking for the recorded melting point of the following compound: COC(=O)Nc1nc2cc(SCC3CCCCC3)ccc2[nH]1
Reply: 200 to 204 °C

Task item: Dear colleague, I am looking for the recorded melting point of the following compound: Cc1c(SCCCN2CCNCC2)ccnc1CNc1cnc2ccccc2c1
Reply: 105 to 108 °C

Task item: Dear colleague, I am looking for the recorded melting point of the following compound: CCCCSc1c[nH]nc1C1=CCCN(C)C1
Reply: 120 to 121 °C

Task item: Dear colleague, I am looking for the recorded melting point of the following compound: O=C(O)Cc1cccc(OCCCc2cc(-c3ccc(C(F)(F)F)cc3)no2)c1
Reply: 126 to 127 °C

Task item: Dear colleague, I am looking for the recorded melting point of the following compound: O[C@@H]1[C@H](O)CS[C@H]1n1cnc2c(NCc3ccccc3Cl)nc(Cl)nc21
Reply: 199 to 200 °C

Task item: Dear colleague, I am looking for the recorded melting point of the following compound: CCOC(Cc1ccc(OCC=C2c3ccccc3CCc3ccccc32)cc1)C(=O)O (centres undefined)
Reply: 147 to 150 °C

Task item: Dear colleague, I am looking for the recorded melting point of the following compound: O=C(COc1ccc(-c2c(Cl)c(CN3C(=O)CCC3=O)nc3sc4c(c23)CCS(=O)C4)cc1)NCc1ccccc1 (centres undefined)
Reply: 220 to 221 °C

Task item: Dear colleague, I am looking for the recorded melting point of the following compound: N#CC(OC(=O)CC=Cc1ccccc1)c1ccc2ccccc2c1 (centres undefined)
Reply: 74 to 75 °C

Task item: Dear colleague, I am looking for the recorded melting point of the following compound: O=C(Nc1nccs1)c1c(C(F)F)nc2c(C(F)(F)F)cccc2c1O
Reply: 226 °C

Task item: Dear colleague, I am looking for the recorded melting point of the following compound: CC(C)(C)CN1C(=O)C2CC2(c2ccc(N)cc2)C1=O (centres undefined)
Reply: 118 to 119 °C

Task item: Dear colleague, I am looking for the recorded melting point of the following compound: O=C1C=CC(O)(c2cc3ccccc3n2S(=O)(=O)c2ccccc2)C=C1
Reply: 170 to 172 °C

Task item: Dear colleague, I am looking for the recorded melting point of the following compound: CCCCN(Cc1ccc(-c2ccccc2C#N)cc1)C(=O)Cc1ccccc1C(=O)O
Reply: 137 to 139 °C

====

readout-name: melting point

Task item: Dear colleague, I am looking for the recorded melting point of the following compound: CCOCc1nc2c(N)nc3cc(Br)ccc3c2n1CC1CCN(S(C)(=O)=O)CC1
Reply: 233 to 234 °C

Task item: Dear colleague, I am looking for the recorded melting point of the following compound: COc1ccc(N2CCOCC2)c2sc(NC(=O)N3CCCOCC3)nc12
Reply: 171 to 172 °C

Task item: Dear colleague, I am looking for the recorded melting point of the following compound: Cc1cc(C)cc(NCc2ccc3nc(NC4CCNC(CCN5CCOCC5)C4)n(Cc4nc(C)ccc4O)c3c2)c1 (stereo not given)
Reply: 150 °C

Task item: Dear colleague, I am looking for the recorded melting point of the following compound: c1csc(-c2nc(COc3ccc(CCCn4ccnc4)cc3)cs2)c1
Reply: 76 to 77 °C

Task item: Dear colleague, I am looking for the recorded melting point of the following compound: O=C1Cc2cc3c(cc2C(c2ccc(F)cc2)=NN1)OCO3
Reply: 205 to 207 °C

Task item: Dear colleague, I am looking for the recorded melting point of the following compound: COc1cccc2c1cc(C(=O)NCCc1ccncc1)n2Cc1cccc(C(=N)NO)c1
Reply: 220 to 222 °C

Task item: Dear colleague, I am looking for the recorded melting point of the following compound: COc1cc(OCc2ccncc2)ccc1/C=C/c1cc(/C=C/c2cccc3cc[nH]c23)n[nH]1
Reply: 201 to 206 °C

Task item: Dear colleague, I am looking for the recorded melting point of the following compound: CC(=O)n1ncc2c(O)cccc21
Reply: 140 to 142 °C

Task item: Dear colleague, I am looking for the recorded melting point of the following compound: CCOC(=O)c1ccc(SCCCC2CCN(c3ccc(Cl)nn3)CC2)cc1
Reply: 96.3 °C

Task item: Dear colleague, I am looking for the recorded melting point of the following compound: O=C(O)CCCc1cc2nc(Cl)ccc2n1S(=O)(=O)c1ccc(-n2cccn2)cc1
Reply: 196 to 207 °C

====

Let's look at some compounds and their measured melting point.

compound: CC(C)(CCl)C(=O)NCc1ccc(Cl)cc1
reported-value: 97 to 98 °C

compound: CN1N=C2C(=Cc3ccccc3)CN(C(N)=O)CC2C1c1ccccc1 (stereo not given)
reported-value: 191 to 193 °C

compound: Cc1nnc(SCC2=C(C(=O)O)N3C(=O)C(N)C3SC2)s1 (stereo not given)
reported-value: 206 °C

compound: CN(c1ccc(S(C)(=O)=O)cc1)S(=O)(=O)c1cccc(NC(=O)c2ccc(S(C)(=O)=O)cc2)c1
reported-value: 213 to 215 °C

compound: NC(=O)CCCCn1ccc([N+](=O)[O-])n1
reported-value: 129 to 131 °C

compound: CCN(CC)C(=O)c1ccc(C(c2ccccc2)C2CCNCC2)cc1 (stereo not given)
reported-value: 160 to 162 °C

Task item: Dear colleague, I am looking for the recorded melting point of the following compound: Cc1c(O)ccc2c(=O)cc(N3CCOCC3)oc12
Reply: > 250 °C

Task item: Dear colleague, I am looking for the recorded melting point of the following compound: CCCn1c(=S)[nH]c2ccc(I)cc2c1=O
Reply: > 200 °C

Task item: Dear colleague, I am looking for the recorded melting point of the following compound: Cc1oc(-c2ccccc2)nc1CNS(=O)(=O)c1ccc(CC2SC(=O)NC2=O)cc1 (stereo not given)
Reply: 120 to 122 °C

Task item: Dear colleague, I am looking for the recorded melting point of the following compound: COC(=O)c1ccc(Nc2nc(Nc3ccc(C(=O)OC)cc3)nc(Nc3ccc(C(=O)OCCOc4ccc(C(C)(C)CC(C)(C)C)cc4)cc3)n2)cc1
Reply: 157 to 160 °C

Task item: Dear colleague, I am looking for the recorded melting point of the following compound: CCCCCCCCCCCCCCCCCCNC(=O)OCC(CO)NC(=O)OC (stereo not given)
Reply: 84 to 85 °C

====

Let's look at some compounds and their measured melting point.

compound: CCOC(=O)C(C)OCc1cc2nc(Cl)ccc2n1S(=O)(=O)c1ccc2nsnc2c1 (centres undefined)
melting point: 77 to 79 °C
--
compound: COc1ccc(N)c(C2OCCO2)c1OC
melting point: 78 to 80 °C
--
compound: CCCCc1cn(CCC)c(=O)n1Cc1ccc(-c2ccccc2-c2nnn[nH]2)nc1
melting point: 164 to 165 °C
--
compound: CS(=O)(=O)Nc1cc2oc(C(N)=O)cc(=O)c2cc1Oc1ccccc1
melting point: > 250 °C
--
compound: Fc1ccc(-c2cc3ccccc3n2-c2ccccc2)cc1
melting point: 126 to 128 °C

Task item: Dear colleague, I am looking for the recorded melting point of the following compound: COc1c(Cl)ccc(-c2cc(N)c(Cl)c(C(=O)NOC3CCCO3)n2)c1F (centres undefined)
Reply: 180 to 183 °C

====

Let's look at some molecules and their measured melting point.

Field: example entries. Status: answers known.
molecule: Cc1cccc(-c2ccnc3c(C#N)cnn23)c1
melting point: 161 to 162 °C

molecule: O=C1c2ccccc2C(=O)N1[C@@H]1C=CCC[C@@H]1O (racemic)
melting point: 112 to 114 °C

molecule: CN(C)c1cc2c(cc1Cl)NC(=O)CC(c1cccc(-c3csc(N)n3)c1)=N2
melting point: 247 to 248 °C

molecule: COc1cc(=O)n(-c2cccc(C(F)(F)F)c2)nc1-c1ccnn1-c1ccccc1
melting point: 165 to 167 °C

molecule: Cc1cc(CC(=O)N[C@H]2CC[C@H](CCN3CCN(c4nccc5c4CCO5)CC3)CC2)on1
melting point: 172 °C

Task item: Dear colleague, I am looking for the recorded melting point of the following molecule: O=C(Nc1c([N+](=O)[O-])ccc2c3c(oc12)CCCC3)c1c(Cl)cccc1Cl
Reply: 246 to 248 °C
